B1: Azoarcus group I ribozyme (parent)
chain: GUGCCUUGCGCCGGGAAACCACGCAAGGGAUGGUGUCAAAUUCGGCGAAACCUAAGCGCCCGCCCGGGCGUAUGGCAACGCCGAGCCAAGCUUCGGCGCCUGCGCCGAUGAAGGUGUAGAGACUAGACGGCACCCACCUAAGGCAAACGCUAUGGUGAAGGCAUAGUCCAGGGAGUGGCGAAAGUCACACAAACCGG

# Variants of: B1
# Test Details: reverse-splicing fitness (ratio to wild type); higher = more active; in vitro selection; Mg2+ level not given
reverse-splicing fitness vs 0.008: at or above is Fulfilled, below is Not fulfilled.

Examples from the recorded data:
Variant Name	Classification
C82A A145U C169G U176G	Not fulfilled
C82U A111G A120C C150U C169U U176G	Not fulfilled
C82G A111C A120G C150G C169A U176C	Fulfilled

QUERY: Hi team, for C82G A120C A145U C150G U176G , is the recorded reverse-splicing fitness at or above 0.008?
RESULT: Not fulfilled

QUERY: Hi team, for C82U A120G A145U C150G C169U U176G , is the recorded reverse-splicing fitness at or above 0.008?
RESULT: Not fulfilled

QUERY: Hi team, for C82G A111G A120U A145U C150G C169A , is the recorded reverse-splicing fitness at or above 0.008?
RESULT: Not fulfilled

QUERY: Hi team, for A111U A120G C169A U176A , is the recorded reverse-splicing fitness at or above 0.008?
RESULT: Fulfilled

QUERY: Hi team, for C82G A111C A120C C150A C169A , is the recorded reverse-splicing fitness at or above 0.008?
RESULT: Fulfilled

QUERY: Hi team, for C82A A111U A120U A145U C169G U176G , is the recorded reverse-splicing fitness at or above 0.008?
RESULT: Not fulfilled

QUERY: Hi team, for A111C A145G C169G U176A , is the recorded reverse-splicing fitness at or above 0.008?
RESULT: Fulfilled

QUERY: Hi team, for C82U A120G A145C C169U , is the recorded reverse-splicing fitness at or above 0.008?
RESULT: Fulfilled

QUERY: Hi team, for A111U A145C C150A U176G , is the recorded reverse-splicing fitness at or above 0.008?
RESULT: Fulfilled

QUERY: Hi team, for C82U A111C A120C A145U C150U C169U , is the recorded reverse-splicing fitness at or above 0.008?
RESULT: Fulfilled

Sourced from the RNAGym collection of RNA variant scans (doi:10.1093/molbev/msab373)
